Protocol: physchem
Type: physicochemical
A collection of molecules and their measured logP
Endpoint label: logP

>>> df
                       smiles_representation  experimental_value
 0  Cn1nc(C(F)(F)C(F)(F)F)c(C(F)(F)F)c1C(=O)Nc1cc(Br)c(Cl)c(C(=O)NCC(F)(F)F)c1             4.14^a)
 1  O=C(Nc1cc(Br)c(Cl)c(C(=O)NC2CC2)c1)c1cnc(C(F)(F)C(F)(F)F)nc1C(F)(F)F             3.62^a)
 2  Cn1nc(OC(F)F)c(I)c1C(=O)Nc1ccc(Cl)c(C(=O)NCC(F)(F)F)c1             2.92^a)
 3  Cn1nc(C(F)(F)C(F)(F)F)c(C(F)(F)F)c1C(=O)Nc1ccc(Cl)c(C(=O)NCC(F)(F)F)c1             3.67^a)
 4  C=CCNC(=O)c1cc(NC(=O)c2c(C(F)(F)F)c(C(F)(F)C(F)(F)F)nn2C)ccc1Cl             3.44^a)
 5  Cn1nc(C(F)(F)C(F)(F)F)c(C(F)(F)F)c1C(=O)Nc1ccc(Cl)c(C(=O)NCc2ccccc2)c1Cl             4.33^a)
 6  Cn1nc(C(F)(F)C(F)(F)F)c(C(F)(F)F)c1C(=O)Nc1cc(F)c(Br)c(C(=O)NCc2ccccc2)c1             4.14^a)
 7  CCn1nc(C(F)(F)C(F)(F)F)c(C(F)(F)F)c1C(=O)Nc1ccc(Cl)c(C(=O)NCC(F)(F)F)c1             3.93^a)
 8  C=CCNC(=O)c1cc(NC(=O)c2ccc(C(F)(F)F)nc2C)c(C)cc1Cl             2.45^a)
 9  CSc1c(Cl)cc(NC(=O)c2c(C(F)(F)F)c(C(F)(F)C(F)(F)F)nn2C)cc1C(=O)NC1CC1             3.80^a)
10  Cn1nc(C(F)(F)C(F)(F)F)c(C(F)(F)F)c1C(=O)Nc1cc(Br)cc(C(=O)NCC(F)(F)F)c1             4.09^a)
11  Cn1nc(-c2ccccc2Cl)c(Br)c1C(=O)Nc1ccc(Cl)c(C(=O)NCC(F)(F)F)c1             3.41^a)
12  CCN(C(=O)c1c(C(F)(F)F)c(C(F)(F)C(F)(F)F)nn1C)c1ccc(Cl)c(C(=O)NCC(F)(F)F)c1             3.81^a)
13  Cn1nc(OCC(F)(F)F)c(Cl)c1C(=O)Nc1ccc(Cl)c(C(=O)NC2CC2)c1             2.89^a)
14  Cn1nc(C(F)(F)C(F)(F)C(F)(F)F)c(Br)c1C(=O)Nc1ccc(Cl)c(C(=O)NC2CC2)c1             3.58^a)
15  Cn1nc(C(F)(F)F)c(Cl)c1C(=O)Nc1ccc(Cl)c(C(=O)NCC(F)(F)F)c1             3.20^a)

###

Protocol: physchem
Format: physicochemical
Procedure: ^a) Note regarding the determination of the log P values and mass detection: The log P values given were determined in accordance with EEC Directive 79/831 Annex V.A8 by HPLC (High Performance Liquid Chromatography) on a phase inversion column (C18). […]
Endpoint label: logP

>>> df
                       smiles_representation  endpoint_label  experimental_value
 0  Cn1nc(C(F)(F)C(F)(F)F)c(C(F)(F)F)c1C(=O)Nc1cc(F)c(F)c(C(=O)NC2CC2)c1F            logP             3.53^a)
 1  O=C(NC1CC1)c1cc(NC(=O)c2cnc(C(F)(F)C(F)(F)F)nc2C(F)(F)F)ccc1Cl            logP             3.20^a)
 2  O=C(NCC=CCl)c1cc(NC(=O)c2ccc(C(F)(F)F)nc2Cl)ccc1Cl            logP             2.86^a)
 3  O=C(NCC(F)(F)F)c1cc(NC(=O)c2cnc(C(F)(F)C(F)(F)F)nc2C(F)(F)C(F)(F)F)ccc1Cl            logP             3.94^a)
 4  Cn1nc(C(F)(F)F)c(Br)c1C(=O)Nc1ccc(Cl)c(C(=O)NCc2ccccc2)c1            logP             3.44^a)
 5  Cn1nc(OCC(F)(F)F)c(Cl)c1C(=O)Nc1ccc(Cl)c(C(=O)NCC(F)(F)F)c1            logP             3.27^a)
 6  Cc1nc(C(F)(F)C(F)(F)F)nc(C)c1C(=O)Nc1ccc(Cl)c(C(=O)NCC=CCl)c1            logP             3.26^a)
 7  O=C(NCC(F)(F)F)c1cc(NC(=O)c2nccc(C(F)(F)F)c2Cl)ccc1Cl            logP             2.88^a)
 8  O=C(NC1CC1)c1cc(NC(=O)c2nccc(C(F)(F)F)c2Cl)ccc1Cl            logP             2.48^a)
 9  Cn1nc(OCC(F)(F)F)c(Br)c1C(=O)Nc1ccc(Cl)c(C(=O)NC2CC2)c1            logP             2.87^a)
10  Cn1nc(C(F)(F)C(F)(F)F)c(C(F)(F)F)c1C(=O)Nc1cc(Cl)c(I)c(C(=O)NCc2ccccc2)c1            logP             4.45^a)
11  C=CCc1c(C(F)(F)C(F)(F)F)nn(C)c1C(=O)Nc1ccc(Cl)c(C(=O)NC2CC2)c1            logP             3.37^a)
12  Cn1nc(-c2ccc(C(F)(F)F)cc2)c(Br)c1C(=O)Nc1ccc(Cl)c(C(=O)NCC(F)(F)F)c1            logP             3.99^a)
13  Cn1nc(C(F)(F)C(F)(F)F)c(C(F)(F)F)c1C(=O)Nc1ccc(Cl)c(C(=O)NCC(F)F)c1            logP             3.41^a)
14  Cc1nc(C(F)(F)F)ccc1C(=O)Nc1ccc(Cl)c(C(=O)NC(C)C)c1            logP             2.53^a)
15  Cn1nc(OC(F)F)c(Br)c1C(=O)Nc1ccc(Cl)c(C(=O)NCC(F)(F)F)c1            logP             2.88^a)
16  Cn1nc(OC(F)F)c(I)c1C(=O)Nc1ccc(Cl)c(C(=O)NC2CC2)c1            logP             2.54^a)

###

Protocol: physchem
Format: physicochemical
Endpoint label: logP

>>> print(df.to_string())
                                    compound  experimental_value
 0  Cn1nc(OC(F)F)cc1C(=O)Nc1ccc(Cl)c(C(=O)NC2CC2)c1 [Ik-234]             2.17^a)
 1  Cn1nc(C(F)(F)C(F)(F)F)c(C(F)(F)F)c1C(=O)Nc1cc(C(=O)NC2CC2)c(F)cc1F [Ik-145]             3.32^a)
 2  Cn1nc(OCC(F)(F)F)c(F)c1C(=O)Nc1ccc(Cl)c(C(=O)NC2CC2)c1 [Ik-260]             2.75^a)
 3  Cn1nc(OCC(F)(F)F)cc1C(=O)Nc1ccc(Cl)c(C(=O)NCC(F)(F)F)c1 [Ik-246]             2.92^a)
 4  Cn1nc(C(F)(F)C(F)(F)F)c(I)c1C(=O)Nc1ccc(Cl)c(C(=O)NCC(F)(F)F)c1 [Ik-99]             3.52^a)
 5  CN(C(=O)c1cnc(C(F)(F)C(F)(F)F)nc1C(F)(F)F)c1ccc(Cl)c(C(=O)NC2CC2)c1 [Ib-38]             3.23^a)
 6  Cn1nc(OCC(F)(F)F)cc1C(=O)Nc1ccc(Cl)c(C(=O)NC2CC2)c1 [Ik-247]             2.55^a)
 7  Cc1nc(C(F)(F)C(F)(F)F)ncc1C(=O)Nc1ccc(Cl)c(C(=O)NCc2ccccc2)c1 [Ib-26]             3.43^a)
 8  Cn1nc(C(F)(F)C(F)(F)F)c(C(F)(F)F)c1C(=O)Nc1cc(F)c(I)c(C(=O)NCC=CCl)c1 [Ik-224]             3.99^a)
 9  COc1ccc(NC(=O)c2c(C(F)(F)F)c(C(F)(F)C(F)(F)F)nn2C)cc1C(=O)NC1CC1 [Ik-185]             3.32^a)
10  Cn1nc(OCC(F)(F)F)c(I)c1C(=O)Nc1ccc(Cl)c(C(=O)NC2CC2)c1 [Ik-245]             2.85^a)
11  Cn1nc(OC(F)F)c(Cl)c1C(=O)Nc1ccc(Cl)c(C(=O)NCC(F)(F)F)c1 [Ik-239]             2.89^a)
12  O=C(NCC(F)(F)F)c1cc(NC(=O)c2cnc(C(F)(F)C(F)(F)F)nc2C2CC2)ccc1Cl [Ib-31]             3.65^a)
13  O=C(NCC(F)(F)F)c1cc(NC(=O)c2ncc(C(F)(F)F)cc2Cl)ccc1Cl [Ii-3]             2.86^a)
14  Cc1nc(C(F)(F)F)ncc1C(=O)Nc1ccc(Cl)c(C(=O)NCC(F)(F)F)c1 [Ib-20]             2.65^a)
15  COC(=O)COC(=O)c1cc(NC(=O)c2c(C(F)(F)F)c(C(F)(F)C(F)(F)F)nn2C)ccc1Cl [Ik-107]             4.03^a)
16  Cn1nc(C(F)(F)C(F)(F)F)c(C(F)(F)F)c1C(=O)Nc1cc(F)c(Br)c(C(=O)NCC(F)(F)F)c1 [Ik-228]             3.88^a)
